All figures here come from PubChem BioAssay (NCATS).

Experiment: Cell Viability - LYMP2-002 (AID 977);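 note: compound exposure lasted 24 h at 37 °C; plate controls were DMSO only for no effect and 92 µM tetraoctylammonium bromide for full effect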
Conditions: LYMP2-002 lymphoblastoid cell viability, qHTS; series mostly up to 92.2 µM
Inconclusive results are not listed. Active and inactive are the calls of the source. Calls come from the whole dose curve; as a rule, active = well fitted cell-killing curve with a large enough effect; inconclusive = small, poorly fitted or top-dose-only effect; inactive = flat fitted curve, though single readings scatter.
test_readout: outcome

1. COc1ccc(C(=O)c2ccccc2)c(O)c1 :: inactive
2. C/C=C/c1ccc(O)c(OC)c1 :: inactive
3. NCCNc1cccc2ccccc12 :: inactive

###

Molecular target: Cytochrome P450 3A4 (Homo sapiens) (UniProt P08684)
Sequence (P08684 whole entry, looked up): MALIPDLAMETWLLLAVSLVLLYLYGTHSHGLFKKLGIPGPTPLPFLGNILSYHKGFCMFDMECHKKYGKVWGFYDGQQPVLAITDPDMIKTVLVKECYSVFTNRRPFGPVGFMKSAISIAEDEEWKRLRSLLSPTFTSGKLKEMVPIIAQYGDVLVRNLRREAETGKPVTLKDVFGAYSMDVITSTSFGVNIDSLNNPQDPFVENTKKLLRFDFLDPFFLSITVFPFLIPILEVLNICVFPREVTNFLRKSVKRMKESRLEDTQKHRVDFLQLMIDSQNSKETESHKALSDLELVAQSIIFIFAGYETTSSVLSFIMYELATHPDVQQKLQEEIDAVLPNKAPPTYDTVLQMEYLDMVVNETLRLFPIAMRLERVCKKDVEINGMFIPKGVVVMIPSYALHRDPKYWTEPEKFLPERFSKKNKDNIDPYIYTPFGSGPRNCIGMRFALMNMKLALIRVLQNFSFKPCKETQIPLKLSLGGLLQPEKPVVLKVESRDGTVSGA
Assay: qHTS Assay for Inhibitors and Substrates of Cytochrome P450 3A4 (AID 884); note: nearly all actives have a fitted effect of over 50% in size
Conditions: recombinant CYP3A4, Luciferin-PPXE luminescence; series mostly up to 57.1 µM
Records with an inconclusive call do not appear. Active and inactive are the calls of the source. Calls come from the whole dose curve; as a rule, active = well fitted inhibition curve with a large enough effect; inconclusive = small, poorly fitted or top-dose-only effect; inactive = no such curve, though single readings can be large or run the other way.
Outcome (select one): Y (active), N (inactive)

Could you kindly confirm the outcome this assay logged for COP(=O)(OC)OC(c1ccc(Cl)cc1)P(=O)(OC)OC (stereo unspecified) ?
N

Could you kindly confirm the outcome this assay logged for CC(=O)NO ?
N

Could you kindly confirm the outcome this assay logged for Cc1cc(C)cc(OCC2CNC(=O)O2)c1 (stereo unspecified) ?
N

Could you kindly confirm the outcome this assay logged for Cc1ncc(CO)c(C=O)c1O ?
N

Could you kindly confirm the outcome this assay logged for CCCCC(CC)CN1CN(CC(CC)CCCC)CC(C)(N)C1 (stereo unspecified) ?
N

Could you kindly confirm the outcome this assay logged for CCOc1ccccc1C(N)=O ?
N

Could you kindly confirm the outcome this assay logged for O=C1C(=O)c2ccccc2C(O)=C1C1CCC(c2ccc(Cl)cc2)CC1 (stereo unspecified) ?
N

Could you kindly confirm the outcome this assay logged for COc1ccc(C(=O)c2ccccc2)c(O)c1 ?
N

Could you kindly confirm the outcome this assay logged for C[N+]12CCC(CC1)C(OC(=O)C(O)(c1ccccc1)c1ccccc1)C2 (stereo unspecified) ?
N

Could you kindly confirm the outcome this assay logged for O=C(O)P(=O)(O)O ?
N

Could you kindly confirm the outcome this assay logged for COc1cc(N)c(Cl)cc1C(=O)NC1CCN(Cc2ccccc2)CC1 ?
Y

###

System: CRL-7250
Assay: Cytotoxic Profiling of Annotated Libraries Using Quantitative High-Throughput Screening (AID 1296008); note: nearly all actives have a fitted effect of over 60% in size
Conditions: Five cell lines viability, CellTiter-Glo ATP luminescence, 48-72 h
Inconclusive results are not listed. Calls of active or inactive are those of the source. Calls follow the shape of the dose curve; as a rule, active = well fitted inhibition curve with a large enough effect; inconclusive = small, poorly fitted or top-dose-only effect; inactive = flat fitted curve, though single readings scatter.
Outcome (select one): label 1 (active), label 0 (inactive)

Could you kindly confirm the outcome this assay logged for Cc1ccccc1OCC(O)CO (centres undefined) ?
label 0

Could you kindly confirm the outcome this assay logged for C[C@H]1O[C@@H](O[C@H]2CC[C@@]3(C)[C@H](CC[C@@H]4[C@@H]3C[C@@H](O)[C@]3(C)[C@@H](C5=CC(=O)OC5)CC[C@]43O)C2)C[C@H](O)[C@@H]1O[C@H]1C[C@H](O)[C@H](O[C@H]2C[C@H](O)[C@H](O[C@@H]3O[C@H](CO)[C@@H](O)[C@H](O)[C@H]3O)[C@@H](C)O2)[C@@H](C)O1 ?
label 1

Could you kindly confirm the outcome this assay logged for Nc1nc(Cl)nc2c1ncn2[C@@H]1O[C@H](CO)[C@@H](O)[C@@H]1F ?
label 1

Could you kindly confirm the outcome this assay logged for CC(C)CCCC(C)N (centres undefined) ?
label 1

###

Kindly supply the reported activity, negative = inhibition values for the records listed here.
Test: qHTS profiling for inhibitors of Plasmodium falciparum proliferation (AID 504749); note: nearly all actives have a fitted effect of over 60% in size;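 for activity, negative = inhibition: 0% = DMSO vehicle and full inhibition = artemisinin control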
Settings: P. falciparum in erythrocytes, SYBR Green DNA, 72 h; at 28.7 µM (top of the series); parasite line A
Inconclusive results are not listed. The source made the active and inactive calls. Calls come from the whole dose curve; as a rule, active = well fitted inhibition curve with a large enough effect; inconclusive = small, poorly fitted or top-dose-only effect; inactive = flat fitted curve, though single readings scatter.

Give reported activity, negative = inhibition value for CCOCCn1c(N2CCCN(C)CC2)nc2ccccc21
7.9% (inactive)

Give reported activity, negative = inhibition value for CC(=O)OCC(=O)[C@H]1CC[C@H]2[C@@H]3CCC4=CC(=O)CC[C@]4(C)[C@H]3CC[C@]12C
-11.3% (inactive)

Give reported activity, negative = inhibition value for COc1ccc2c(c1)c1c3n2CCN(C)C3=NCC1
-3.91% (inactive)

Give reported activity, negative = inhibition value for CC(=O)N[C@@H](CCC(=O)O)C(=O)O
4.59% (inactive)

Give reported activity, negative = inhibition value for O=S(=O)(O)c1ccc(O)cc1
4.42% (inactive)

Give reported activity, negative = inhibition value for NC(=O)n1c(O)c(C(=O)c2cccs2)c2cc(Cl)ccc21
5.54% (inactive)

Give reported activity, negative = inhibition value for OC[C@H]1O[C@@H]2O[C@H]3[C@H](O)[C@@H](O)[C@@H](O[C@H]4[C@H](O)[C@@H](O)[C@@H](O[C@H]5[C@H](O)[C@@H](O)[C@@H](O[C@H]6[C@H](O)[C@@H](O)[C@@H](O[C@H]7[C@H](O)[C@@H](O)[C@@H](O[C@H]8[C@H](O)[C@@H](O)[C@@H](O[C@H]1[C@H](O)[C@H]2O)O[C@@H]8CO)O[C@@H]7CO)O[C@@H]6CO)O[C@@H]5CO)O[C@@H]4CO)O[C@@H]3CO
8.7% (inactive)

Give reported activity, negative = inhibition value for NC(=O)c1ccccc1O
4.99% (inactive)

Give reported activity, negative = inhibition value for COc1ccc(CN(CCN(C)C)c2ncccn2)cc1
12.9% (inactive)

Give reported activity, negative = inhibition value for O=c1[nH]c(=O)n([C@H]2C[C@H](O)[C@@H](CO)O2)cc1F
0.388% (inactive)

Give reported activity, negative = inhibition value for Cl/C(=C\n1cncn1)c1ccc(Cl)cc1Cl
10.9% (inactive)

Give reported activity, negative = inhibition value for CCCCCCCCCCCCCCCCO
1.6% (inactive)

Give reported activity, negative = inhibition value for CN(C)CCN1C(=O)c2ccccc2N(C)c2ccccc21
-2.77% (inactive)

Give reported activity, negative = inhibition value for NS(=O)(=O)Cc1noc2ccccc12
6.43% (inactive)

Give reported activity, negative = inhibition value for CCc1oc2ccccc2c1C(=O)c1cc(I)c(O)c(I)c1
-1.64% (inactive)

Give reported activity, negative = inhibition value for CC(C)CCCC(C)N (stereo unspecified)
13% (inactive)

Give reported activity, negative = inhibition value for CCCCCCCC/C=C\CCCCCCCCN
9.32% (inactive)

Give reported activity, negative = inhibition value for C#C[C@]1(O)CC[C@H]2[C@@H]3CCC4=Cc5oncc5C[C@]4(C)[C@H]3CC[C@@]21C
-28.2% (inactive)

Give reported activity, negative = inhibition value for CN1CCN(C2=Nc3cc(F)ccc3Cc3ccccc32)CC1
-5.08% (inactive)

Give reported activity, negative = inhibition value for COc1cc(C(=O)N2CCCCCCC2)cc(OC)c1OC
22.3% (inactive)

Give reported activity, negative = inhibition value for COc1ccc(CCN(C)CCCN2CCc3cc(OC)c(OC)cc3CC2=O)cc1OC
-14.9% (inactive)

###

Assay: qHTS of pediatric cancer cell lines to identify multiple opportunities for drug repurposing: Primary screen for BT-37 cells (AID 1347094); note: potency is the fitted concentration of half-maximal effect
Settings: BT-37 viability, CellTiter-Glo luminescence, 48 h; series mostly up to 57.3 µM
Results filed as inconclusive are left out. The source made the active and inactive calls. Calls come from the whole dose curve; as a rule, active = well fitted cell-killing curve with a large enough effect; inconclusive = small, poorly fitted or top-dose-only effect; inactive = flat fitted curve, though single readings scatter.
test_readout: Potency

Check out these entries, answers already filled in.
1) COc1cc(N)c(Cl)cc1C(=O)NC1CCN(Cc2ccccc2)CC1 :: inactive
2) CCN(CC)CCNC(=O)c1cc(Br)c(N)cc1OC :: inactive
3) CC(O)Cn1cnc2c1c(=O)n(C)c(=O)n2C (stereo not drawn) :: inactive
4) CCc1oc2ccccc2c1C(=O)c1cc(I)c(O)c(I)c1 :: inactive
5) CCCCCCCCNC(C)C(O)c1ccc(SC(C)C)cc1 (stereo not drawn) :: 27.6 µM (active)
6) NCCNc1cccc2ccccc12 :: inactive
7) COc1cc(C(=O)N2CCCCCCC2)cc(OC)c1OC :: inactive
8) CCCCCCCCCCCCOCCOCCOCCOCCOCCOCCOCCOCCOCCO :: 19.5 µM (active)

Give reported Potency value for Cc1c(-c2ccccc2)oc2c(C(=O)OCCN3CCCCC3)cccc2c1=O
inactive

Give reported Potency value for C#C[C@]1(O)CC[C@H]2[C@@H]3[C@H](C)CC4=C(CCC(=O)C4)[C@H]3CC[C@@]21C
inactive

Give reported Potency value for COP(=O)(OC)OC(c1ccc(Cl)cc1)P(=O)(OC)OC (stereo not drawn)
inactive

Give reported Potency value for O=[N+]([O-])c1ccc(/C=N\O)o1
inactive

Give reported Potency value for O=C(Nc1ccc([N+](=O)[O-])cc1)Nc1ccc([N+](=O)[O-])cc1
inactive

Give reported Potency value for CC(C)[C@@H]1CC[C@@H](C)CC1=O
inactive

Give reported Potency value for O=C(O)c1ccc(S(=O)(=O)N(Cl)Cl)cc1
inactive

###

Tested on: C2A
Experiment: qHTS profiling for inhibitors of Plasmodium falciparum proliferation (AID 504749); note: nearly all actives have a fitted effect of over 60% in size
Details: P. falciparum in erythrocytes, SYBR Green DNA, 72 h; series mostly up to 28.7 µM
Inconclusive results are not listed. Calls of active or inactive are those of the source. Calls come from the whole dose curve; as a rule, active = well fitted inhibition curve with a large enough effect; inconclusive = small, poorly fitted or top-dose-only effect; inactive = flat fitted curve, though single readings scatter.
Outcome (select one): class 1 = active, class 0 = inactive

Could you kindly confirm the outcome this assay logged for Cc1ccc(S(=O)(=O)NC(=O)NC2CCCC2)cc1 ?
class 0

Could you kindly confirm the outcome this assay logged for COC(=O)C(c1ccccc1Cl)N1CCc2sccc2C1 (stereo not given) ?
class 0

Could you kindly confirm the outcome this assay logged for COc1ccc(C(=O)c2ccccc2O)c(O)c1 ?
class 0

Could you kindly confirm the outcome this assay logged for NC(N)=NCc1cccc(I)c1 ?
class 0

Could you kindly confirm the outcome this assay logged for C[N+]1(CC2COC(c3ccccc3)(C3CCCCC3)O2)CCCCC1 (stereo not given) ?
class 1

Could you kindly confirm the outcome this assay logged for Cc1ccc(O)c([C@H](CCN(C(C)C)C(C)C)c2ccccc2)c1 ?
class 1

Could you kindly confirm the outcome this assay logged for CCOc1ccc(NC(C)=O)cc1 ?
class 0

Could you kindly confirm the outcome this assay logged for CN1CCN(C2=Nc3ccccc3Sc3ccc(Cl)cc32)CC1 ?
class 0

Could you kindly confirm the outcome this assay logged for CCc1oc2ccccc2c1C(=O)c1cc(Br)c(O)c(Br)c1 ?
class 0

Could you kindly confirm the outcome this assay logged for O=C(O)C1(C(=O)O)CCC1.[NH2-].[NH2-].[Pt+2] ?
class 0

Could you kindly confirm the outcome this assay logged for CC1(COc2ccc(CC3SC(=O)NC3=O)cc2)CCCCC1 (stereo not given) ?
class 0

Could you kindly confirm the outcome this assay logged for CCCCC(CC)COC(=O)/C=C/c1ccc(OC)cc1 (stereo not given) ?
class 0

Could you kindly confirm the outcome this assay logged for CCCCCCCCCCCCCC(=O)OC(C)C ?
class 0

Could you kindly confirm the outcome this assay logged for O=C(NC1CCN(CCc2c[nH]c3ccccc23)CC1)c1ccccc1 ?
class 0

Could you kindly confirm the outcome this assay logged for O=C(c1ccc(F)cc1)C1CCN(CCn2c(=S)[nH]c3ccccc3c2=O)CC1 ?
class 1
